system: BMPR1A; settings: concentration: 1 μM, replicates: in singlicate; n = 1;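 also: KINOMEscan kinase panel screen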
Overview of reported %Inh across a group of compounds:
I only need the number, in %, no unit after it.

Some solved entries appear below for comparison.
| smiles-text | number |
| --- | --- |
| Cc1cccc(-c2nc(Nc3ccc4[nH]nnc4c3)c3ccccc3n2)n1 | 0 |
| Fc1ccc(Nc2nccc(-c3c(-c4ccc(Cl)cc4)nn4ncccc34)n2)cc1F | 18 |
| Fc1cccc(COc2ccc(Nc3ncnc4sc(-c5ccc[nH]5)cc34)cc2Cl)c1 | 25 |
| Fc1cccc(COc2ccc(Nc3ncnc4cc[nH]c34)cc2Cl)c1 | 21 |

Next item in the queue.
Quote %Inh reported for "O=c1cc(N2CCOCC2)nc2n(Cc3cccc(Cl)c3)ccn12" please.
0

###

system: FRK; conditions: concentration: 1 μM, replicates: in singlicate; n = 1
Overview of reported %Inh across a group of molecules:
# answer = value followed by unit

Some solved entries appear below for comparison.
| molecule | result |
| --- | --- |
| CCn1c(-c2ccncc2)nc2cnccc21 | 0% |
| FC(F)(F)c1ccc(-c2nn3ncccc3c2-c2ccnc(Nc3cccc(C(F)(F)F)c3)n2)cc1 | 0% |
| CCc1nc(-c2cccc(N(C)S(=O)(=O)c3ccccc3)c2)c(-c2ccnc(Nc3ccc(N4CCN(C(C)=O)CC4)nc3)n2)s1 | 0% |
| CNc1nccc(-c2c(-c3ccc(F)cc3)ncn2C2CCN(C)CC2)n1 | 0% |
| CC(C)N1CCC(n2cnc(-c3ccc(F)cc3)c2-c2ccnc(N)n2)CC1 | 1% |

Quote %Inh reported for "Cc1ccc(O)cc1Nc1cc(C(F)(F)F)nc2ccc(-c3ccncc3)cc12" please.
14%

Quote %Inh reported for "CSc1ccc(NC2=C(c3ccccc3Cl)C(=O)NC2=O)cc1" please.
9%

###

test system: DMPK2; construct: gene CDC42BPG; settings: concentration: 1 μM, replicates: in singlicate; n = 1
Overview of reported %Inh across a group of molecules:
I only need the number, in %, no unit after it.

Some solved entries appear below for comparison.
| smiles-text | %Inh [%] |
| --- | --- |
| Nc1nccc2scc(-c3ccc4c(c3)CCN4C(=O)Cc3cc(F)ccc3F)c12 | 13 |
| Fc1ccc(Nc2nccc(-c3c(-c4ccc(Cl)cc4)nn4ncccc34)n2)cc1F | 0 |
| Cn1ccc2ncnc(Oc3ccc(NC(=O)Nc4cccnc4)c(Cl)c3)c21 | 0 |
| Cl.Cn1ccc(-c2cccc(Nc3ccnc4cc(-c5nccs5)ccc34)c2)n1 | 0 |

Quote %Inh reported for "Nc1nc(-c2ccc3c(N)n[nH]c3c2)cc(N2CCCCC2)n1" please.
0

Quote %Inh reported for "Cc1cccc(-c2nc(Nc3ccc4[nH]nnc4c3)c3ccccc3n2)n1" please.
0

Quote %Inh reported for "Clc1cccc(-c2nc(Nc3ccncc3)c3ccccc3n2)c1" please.
84

Quote %Inh reported for "Cl.O=S(=O)(c1cccc(F)c1)c1ccc(Nc2ncnc3cc(Br)sc23)cc1Cl" please.
15

Quote %Inh reported for "CCn1c(-c2ccncc2)nc2cnccc21" please.
0

Quote %Inh reported for "CCc1nc(-c2cccc(N(C)S(=O)(=O)c3ccccc3)c2)c(-c2ccnc(Nc3ccc(N4CCN(C(C)=O)CC4)nc3)n2)s1" please.
22

Quote %Inh reported for "Clc1ccc(-c2cc(-c3c[nH]nc3-c3ccccn3)ccn2)cc1" please.
0

Quote %Inh reported for "O=c1cc(N2CCOCC2)nc2n(Cc3cccc(Cl)c3)ccn12" please.
0

Quote %Inh reported for "COC(=O)c1c(-c2ccccc2)c2cc(Cl)ccc2c(=O)n1Cc1ccc(S(C)(=O)=O)cc1" please.
0

Quote %Inh reported for "c1ccc(-c2ccc3c(-c4ccnc(Nc5ccc6c(c5)OCCO6)n4)cnn3n2)cc1" please.
0

Quote %Inh reported for "Clc1cc(Nc2ncnc3cc[nH]c23)ccc1OCc1ccccn1" please.
0

Quote %Inh reported for "CCC(CC)(CC)n1cnc2c(N)ncnc21" please.
0

Quote %Inh reported for "FC(F)(F)c1cc(Nc2nccc(-c3c(-c4ccc(Cl)cc4)nn4ncccc34)n2)ccc1Cl" please.
19

Quote %Inh reported for "Cc1ccc(C)c(NC(=O)NCCNc2ccnc(Nc3ccc(F)cc3)n2)c1" please.
0
